Biological target: inactive form of GP IIb/IIIa (unactivated GP IIb/IIIa) (Homo sapiens, UniProt P05106+P08514)
Sequence (P08514 32-887 limits assumed): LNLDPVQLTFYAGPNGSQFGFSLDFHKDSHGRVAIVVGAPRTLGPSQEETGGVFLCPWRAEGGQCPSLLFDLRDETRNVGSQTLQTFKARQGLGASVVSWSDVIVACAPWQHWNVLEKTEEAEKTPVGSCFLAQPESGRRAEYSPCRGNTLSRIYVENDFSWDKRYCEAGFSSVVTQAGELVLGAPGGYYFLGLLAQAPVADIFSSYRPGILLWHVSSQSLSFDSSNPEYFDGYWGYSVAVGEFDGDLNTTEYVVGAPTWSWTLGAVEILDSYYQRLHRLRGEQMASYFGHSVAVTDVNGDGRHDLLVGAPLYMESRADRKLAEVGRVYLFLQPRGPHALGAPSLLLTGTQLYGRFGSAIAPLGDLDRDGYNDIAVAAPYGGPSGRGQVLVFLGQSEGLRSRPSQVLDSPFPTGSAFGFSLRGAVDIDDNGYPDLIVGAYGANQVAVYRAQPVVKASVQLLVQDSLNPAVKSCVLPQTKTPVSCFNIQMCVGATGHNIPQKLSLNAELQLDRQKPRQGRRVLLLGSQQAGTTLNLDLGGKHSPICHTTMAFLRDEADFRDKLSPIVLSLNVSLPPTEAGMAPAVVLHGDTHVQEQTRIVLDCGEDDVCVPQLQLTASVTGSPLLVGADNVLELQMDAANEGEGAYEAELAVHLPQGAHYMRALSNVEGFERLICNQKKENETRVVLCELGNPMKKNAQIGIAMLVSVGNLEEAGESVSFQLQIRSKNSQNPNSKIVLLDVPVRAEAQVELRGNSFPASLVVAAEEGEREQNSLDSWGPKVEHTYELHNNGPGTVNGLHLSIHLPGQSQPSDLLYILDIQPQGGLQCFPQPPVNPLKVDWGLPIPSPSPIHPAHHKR
Sequence (P08514 891-1039 partner limits assumed): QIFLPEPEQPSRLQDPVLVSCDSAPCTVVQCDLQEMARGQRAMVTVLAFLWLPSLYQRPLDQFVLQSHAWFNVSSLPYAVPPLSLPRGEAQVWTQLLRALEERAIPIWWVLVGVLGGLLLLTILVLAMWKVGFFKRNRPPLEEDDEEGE
Sequence (P05106 27-788): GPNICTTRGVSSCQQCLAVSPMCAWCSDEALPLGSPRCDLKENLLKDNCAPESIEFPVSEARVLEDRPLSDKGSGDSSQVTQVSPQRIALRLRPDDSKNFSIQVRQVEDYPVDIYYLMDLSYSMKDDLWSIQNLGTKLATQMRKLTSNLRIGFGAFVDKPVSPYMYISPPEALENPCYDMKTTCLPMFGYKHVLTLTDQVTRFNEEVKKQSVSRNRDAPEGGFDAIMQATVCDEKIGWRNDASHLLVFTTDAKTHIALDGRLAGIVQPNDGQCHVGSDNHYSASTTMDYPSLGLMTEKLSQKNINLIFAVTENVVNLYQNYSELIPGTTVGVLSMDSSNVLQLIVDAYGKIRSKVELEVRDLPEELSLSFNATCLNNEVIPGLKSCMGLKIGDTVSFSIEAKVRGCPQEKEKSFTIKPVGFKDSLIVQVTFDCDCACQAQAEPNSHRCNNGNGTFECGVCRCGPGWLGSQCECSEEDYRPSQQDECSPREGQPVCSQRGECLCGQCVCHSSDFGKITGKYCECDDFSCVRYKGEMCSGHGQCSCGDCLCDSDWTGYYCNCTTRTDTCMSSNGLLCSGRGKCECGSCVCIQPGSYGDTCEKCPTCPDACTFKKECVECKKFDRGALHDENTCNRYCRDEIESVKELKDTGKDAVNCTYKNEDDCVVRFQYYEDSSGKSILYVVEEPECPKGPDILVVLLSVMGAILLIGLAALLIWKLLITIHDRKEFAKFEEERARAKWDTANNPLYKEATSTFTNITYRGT
Experiment: Fluorescence displacement of probe 2-8 from inactive (unactivated) form of GP IIb/IIIa
Assay type: binding
Conditions: inactive form, does not bind to RGDS affinity column; displacement of 2-8; read-out: Ki on inactive form of GP IIb/IIIa
PROPERTY LABEL: pKi
Conceptually, pKi converts a concentration in mol/L into minus its log10.

Record O=C(O)C[C@@H](CCc1c[nH]c2ccccc12)NC(=O)CNC(=O)CCCC1CCNCC1 . Reported pKi: 6.33

* * *

Test system: ADP-stimulated platelets
Assay: Fibrinogen Receptor Antagonist Assay: ADP-stimulated platelet aggregation (gel-filtered human platelets)
Type: cell-based
Details: gel-filtered human platelets 2×10^8 per ml, fibrinogen 100 μg/ml, Ca^2+ 1 mM, 10 μM ADP, 37° C.
Provide the recorded IC50 for the entries that follow.
All answers are understood in nM, so give the number only.

Record O=C(O)CCNC(=O)c1ccc2c(c1)C(=O)N(CCC1CCNCC1)C2 . Reported IC50: 27

Record O=C(O)C[C@@H](CCc1c[nH]c2ccccc12)NC(=O)CNC(=O)CCCC1CCNCC1 . Reported IC50: 94

Record O=C(NC[C@H](NS(=O)(=O)c1cccnc1)C(=O)O)c1cc2cc(CCC3CCNCC3)sc2s1 . Reported IC50: 8

Record CCCCS(=O)(=O)N[C@@H](CNC(=O)c1ccc2c(c1)C(=O)N(CCC1CCNCC1)C2)C(=O)O . Reported IC50: 21
